- Study system: COX II (Homo sapiens)
- Sequence (P35354 18-604): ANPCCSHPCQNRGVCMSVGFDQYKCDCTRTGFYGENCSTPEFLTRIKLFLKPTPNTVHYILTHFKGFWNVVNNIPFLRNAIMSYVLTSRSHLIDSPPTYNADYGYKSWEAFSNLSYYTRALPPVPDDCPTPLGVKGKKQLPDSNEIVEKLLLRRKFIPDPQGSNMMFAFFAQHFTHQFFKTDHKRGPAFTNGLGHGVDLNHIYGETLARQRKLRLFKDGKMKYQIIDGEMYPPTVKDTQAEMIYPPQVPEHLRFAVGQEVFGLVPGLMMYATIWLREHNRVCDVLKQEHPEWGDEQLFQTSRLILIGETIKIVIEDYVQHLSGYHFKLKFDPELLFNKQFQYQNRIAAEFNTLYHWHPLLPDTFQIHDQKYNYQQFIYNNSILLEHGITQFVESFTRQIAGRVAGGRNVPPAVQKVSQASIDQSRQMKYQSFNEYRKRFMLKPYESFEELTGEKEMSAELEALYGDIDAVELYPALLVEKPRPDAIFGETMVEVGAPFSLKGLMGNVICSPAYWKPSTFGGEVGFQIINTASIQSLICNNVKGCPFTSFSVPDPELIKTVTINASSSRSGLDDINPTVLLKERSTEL
- Test protocol: radiometric assay, COX II inhibition (human recombinant, baculovirus expressed, partially purified)
- Assay type: biochemical
- Parameters: A 1.8 Kb DNA fragment containing the coding region of human COX II was generated by PCR; made in house; host or cells: Sf9 insect cells, baculovirus
- Run conditions: radiometric assay, human recombinant baculovirus expressed enzyme; read-out: COX II IC50 (Table 2)
pIC50: −log10 of the molar value.
Readout label: pIC50

Some compounds with recorded pIC50:
[
  {
    "Compound": "CC(=O)n1nc(Cc2cc(C)c(C(=O)c3ccc(Cl)cc3)n2C)ccc1=O [Compound 114]",
    "pIC50": 6.18
  },
  {
    "Compound": "Cc1cc(Cc2ccc(=O)n(CC(N)=O)n2)n(C)c1C(=O)c1ccc(Cl)cc1 [Compound 120]",
    "pIC50": 6.10
  },
  {
    "Compound": "C=CCn1nc(Cc2cc(C)c(C(=O)c3ccc(Cl)cc3)n2C)ccc1=O [Compound 127]",
    "pIC50": 6.17
  }
]

1: Cc1cc(C(C)c2ccc(=O)[nH]n2)n(C)c1C(=O)c1ccc(Cl)cc1 (stereo not drawn) [Compound 18]
2: Cc1cc(Cc2ccc(=O)[nH]n2)n(C)c1C(=O)c1cccs1 [Compound 144]
3: Cc1cc(Cc2ccc(=O)n(Cc3ccc(Cl)cc3)n2)n(C)c1C(=O)c1ccc(Cl)cc1 [Compound 133]
Query: List the 3 entries from lowest pIC50 to highest pIC50 value. List the labels, following the order given in the request.
Response: 1, 2, 3
(1: 5.82, 2: 6.23, 3: 7.15)

Sourced from patent US5622948A
